# Protocol notes: Inhibition of chymotrypsin like activity of partially purified human proteasome
# Type: subcellular
Metric: IC50 (nM)

[A] COc1ccc(C[C@H](NC(=O)[C@@H](NC(=O)[C@H](Cc2ccc(OC)cc2)NC(=O)c2cccc(C)n2)C(C)C)B(O)O)cc1
[B] COc1ccc(C[C@H](NC(=O)[C@@H](NC(=O)[C@H](Cc2ccc(OC)cc2)NC(=O)c2ccncc2)C(C)C)B(O)O)cc1
[C] COc1ccc(C[C@H](NC(=O)[C@@H](NC(=O)[C@H](Cc2ccc(OC)cc2)NC(=O)c2cccnc2)C(C)C)B(O)O)cc1
[D] COc1ccc(C[C@H](NC(=O)[C@@H](NC(=O)[C@H](Cc2ccc(OC)cc2)NC(=O)c2cnc3ccccc3c2)C(C)C)B(O)O)cc1
[Q] // smallest IC50 at index 0, largest at the end Write the labels out in the order the request specifies.
[A] D, A, C, B
(D: 56 nM, A: 88 nM, C: 500 nM, B: 2300 nM)

====

# Protocol notes: Inhibition of caspase like activity of partially purified human proteasome
# Format: subcellular
Metric: IC50 (µM)

Reference set, count: 4
1. COc1ccc(C[C@H](NC(=O)[C@@H](NC(=O)[C@H](Cc2ccc(OC)cc2)NC(=O)c2cccc(Cl)n2)C(C)C)B(O)O)cc1 ... 23
2. COc1ccc(C[C@H](NC(=O)[C@@H](NC(=O)[C@H](Cc2ccc(OC)cc2)NC(=O)c2ncccc2O)C(C)C)B(O)O)cc1 ... 29
3. COc1ccc(C[C@H](NC(=O)[C@@H](NC(=O)[C@H](Cc2ccc(OC)cc2)NC(=O)c2cc(C)ccn2)C(C)C)B(O)O)cc1 ... 30
4. COc1ccc(C[C@H](NC(=O)[C@@H](NC(=O)[C@H](Cc2ccc(OC)cc2)NC(=O)c2ccccn2)C(C)C)B(O)O)cc1 ... 23

[P] COc1ccc(C[C@H](NC(=O)[C@@H](NC(=O)[C@H](Cc2ccc(OC)cc2)NC(=O)Cc2ccc3ccccc3c2)C(C)C)B(O)O)cc1
[Q] COc1ccc(C[C@H](NC(=O)[C@@H](NC(=O)[C@H](Cc2ccc(OC)cc2)NC(=O)c2cccc3cccnc23)C(C)C)B(O)O)cc1
[Q] Would you let me know which has the greater IC50 value, P or Q ? Return value: the label identifying the chosen record.
[A] P

====

# Protocol notes: Inhibition of caspase like activity of partially purified human proteasome
# Assay type: subcellular
pIC50: −log10 of the molar value.
Metric: pIC50

1) COc1ccc(C[C@H](NC(=O)[C@@H](NC(=O)[C@H](Cc2ccc(OC)cc2)NC(=O)c2ncccc2Cl)C(C)C)B(O)O)cc1 ... 4.70

[a] COc1ccc(C[C@H](NC(=O)[C@@H](NC(=O)[C@H](Cc2ccc(OC)cc2)NC(=O)c2ccc(C(F)(F)F)cn2)C(C)C)B(O)O)cc1
[b] COc1ccc(C[C@H](NC(=O)[C@@H](NC(=O)[C@H](Cc2ccc(OC)cc2)NC(=O)c2cc3ccccc3cn2)C(C)C)B(O)O)cc1
[Q] Param metric = pIC50; output whichever of a , b has the minimum value. Kindly state the label of the option you pick.
[A] a

====

# Protocol notes: Inhibition of caspase like activity of partially purified human proteasome
# Assay type: subcellular
Metric: IC50 (µM)

1. COc1ccc(C[C@H](NC(=O)[C@@H](NC(=O)[C@H](Cc2ccc(OC)cc2)NC(=O)c2ccc(C)cn2)C(C)C)B(O)O)cc1 ... 30
2. COc1ccc(C[C@H](NC(=O)[C@@H](NC(=O)[C@H](Cc2ccc(OC)cc2)NC(=O)c2ccc(Cl)cn2)C(C)C)B(O)O)cc1 ... 16
3. COc1ccc(C[C@H](NC(=O)[C@@H](NC(=O)[C@H](Cc2ccc(OC)cc2)NC(=O)c2ncccc2Br)C(C)C)B(O)O)cc1 ... 20

[1] COc1ccc(C[C@H](NC(=O)[C@@H](NC(=O)[C@H](Cc2ccc(OC)cc2)NC(=O)Cc2ccc3ccccc3n2)C(C)C)B(O)O)cc1
[2] COc1ccc(C[C@H](NC(=O)[C@@H](NC(=O)[C@H](Cc2ccc(OC)cc2)NC(=O)c2cccc(C)n2)C(C)C)B(O)O)cc1
[3] CC(C)C[C@H](NC(=O)[C@H](Cc1ccccc1)NC(=O)c1cnccn1)B(O)O [BORTEZOMIB]
[Q] Let's sort these by IC50, smallest first. Go ahead? API: response body holds the labels in the requested order.
[A] 3, 1, 2

====

# Protocol notes: Inhibition of caspase like activity of partially purified human proteasome
# Assay type: subcellular
Metric: IC50 (µM)

1. COc1ccc(C[C@H](NC(=O)[C@@H](NC(=O)[C@H](Cc2ccc(OC)cc2)NC(=O)c2cc(OC)ccn2)C(C)C)B(O)O)cc1 ... 20
2. COc1ccc(C[C@H](NC(=O)[C@@H](NC(=O)[C@H](Cc2ccc(OC)cc2)NC(=O)c2cnc3ccccc3c2)C(C)C)B(O)O)cc1 ... 32
3. COc1ccc(C[C@H](NC(=O)[C@@H](NC(=O)[C@H](Cc2ccc(OC)cc2)NC(=O)c2ccc(F)cn2)C(C)C)B(O)O)cc1 ... 30
4. COc1ccc(C[C@H](NC(=O)[C@@H](NC(=O)[C@H](Cc2ccc(OC)cc2)NC(=O)c2ccnc3ccccc23)C(C)C)B(O)O)cc1 ... 24

====

# Protocol notes: Inhibition of caspase like activity of partially purified human proteasome
# Type: subcellular
pIC50: −log10 of the molar value.
Metric: pIC50

Below: 3 molecules and their reported pIC50.
1) COc1ccc(C[C@H](NC(=O)[C@@H](NC(=O)[C@H](Cc2ccc(OC)cc2)NC(=O)c2cc(Cl)ccn2)C(C)C)B(O)O)cc1 ... 4.68
2) COc1ccc(C[C@H](NC(=O)[C@@H](NC(=O)[C@H](Cc2ccc(OC)cc2)NC(=O)c2cc(N(C)C)ccn2)C(C)C)B(O)O)cc1 ... 4.68
3) COc1ccc(C[C@H](NC(=O)[C@@H](NC(=O)[C@H](Cc2ccc(OC)cc2)NC(=O)c2cccc(O)n2)C(C)C)B(O)O)cc1 ... 4.59

[P] COc1ccc(C[C@H](NC(=O)[C@@H](NC(=O)[C@H](Cc2ccc(OC)cc2)NC(=O)c2nccc3ccccc23)C(C)C)B(O)O)cc1
[Q] COc1ccc(C[C@H](NC(=O)CNC(=O)[C@H](Cc2ccc(OC)cc2)NC(=O)c2ccccn2)B(O)O)cc1
[Q] Hi there, can you help? I need to know whether P or Q has lower measured pIC50. State the label of the item chosen.
[A] Q
(Q: 4.47, P: 4.72)

====

# Protocol notes: Inhibition of chymotrypsin like activity of partially purified human proteasome
# Assay type: subcellular
pIC50: −log10 of the molar value.
Metric: pIC50

1) COc1ccc(C[C@H](NC(=O)[C@@H](NC(=O)[C@H](Cc2ccc(OC)cc2)NC(=O)c2cccc(Br)n2)C(C)C)B(O)O)cc1 ... 7.04

[P] COc1ccc(C[C@H](NC(=O)[C@@H](NC(=O)[C@H](Cc2ccc(OC)cc2)NC(=O)c2cccc(Cl)n2)C(C)C)B(O)O)cc1
[Q] COc1ccc(C[C@H](NC(=O)[C@@H](NC(=O)[C@H](Cc2ccc(OC)cc2)NC(=O)c2cc([N+](=O)[O-])ccn2)C(C)C)B(O)O)cc1
[R] COc1ccc(C[C@H](NC(=O)[C@@H](NC(=O)[C@H](Cc2ccc(OC)cc2)NC(=O)c2nccc3ccccc23)C(C)C)B(O)O)cc1
[Q] // ascending sort on recorded pIC50 A complete answer lists every label in the requested sequence.
[A] Q, P, R

====

# Protocol notes: Inhibition of chymotrypsin like activity of partially purified human proteasome
# Assay type: subcellular
Metric: IC50 (µM)

1) COc1ccc(C[C@H](NC(=O)[C@@H](NC(=O)[C@H](Cc2ccc(OC)cc2)NC(=O)c2ncccc2Cl)C(C)C)B(O)O)cc1 ... 0.083

[1] COc1ccc(C[C@H](NC(=O)[C@@H](NC(=O)[C@H](Cc2ccc(OC)cc2)NC(=O)Cc2ccc3ccccc3c2)C(C)C)B(O)O)cc1
[2] COc1ccc(C[C@H](NC(=O)[C@@H](NC(=O)[C@H](Cc2ccc(OC)cc2)NC(=O)c2ncccc2Br)C(C)C)B(O)O)cc1
[3] COc1ccc(C[C@H](NC(=O)[C@@H](NC(=O)[C@H](Cc2ccc(OC)cc2)NC(=O)c2cc(Br)ccn2)C(C)C)B(O)O)cc1
[Q] Provide the items ranked by increasing IC50. Output the labels ranked as instructed.
[A] 1, 2, 3
(1: 0.022 µM, 2: 0.061 µM, 3: 0.095 µM)

====

# Protocol notes: Inhibition of chymotrypsin like activity of partially purified human proteasome
# Type: subcellular
Metric: IC50 (nM)

Reference set, count: 5
1. COc1ccc(C[C@H](NC(=O)[C@@H](NC(=O)[C@H](Cc2ccc(OC)cc2)NC(=O)c2ccccn2)C(C)C)B(O)O)cc1 ... 230
2. COc1ccc(C[C@H](NC(=O)[C@@H](NC(=O)[C@H](Cc2ccc(OC)cc2)NC(=O)c2ccc(C(F)(F)F)cn2)C(C)C)B(O)O)cc1 ... 110
3. COc1ccc(C[C@H](NC(=O)[C@@H](NC(=O)[C@H](Cc2ccc(OC)cc2)NC(=O)c2cc(C(F)(F)F)ccn2)C(C)C)B(O)O)cc1 ... 150
4. COc1ccc(C[C@H](NC(=O)[C@@H](NC(=O)[C@H](Cc2ccc(OC)cc2)NC(=O)Cc2cccc3ccccc23)C(C)C)B(O)O)cc1 ... 19
5. COc1ccc(C[C@H](NC(=O)[C@@H](NC(=O)[C@H](Cc2ccc(OC)cc2)NC(=O)c2cc(C)ccn2)C(C)C)B(O)O)cc1 ... 140

[P] COc1ccc(C[C@H](NC(=O)[C@@H](NC(=O)[C@H](Cc2ccc(OC)cc2)NC(=O)c2cc3ccccc3cn2)C(C)C)B(O)O)cc1
[Q] COc1ccc(C[C@H](NC(=O)[C@@H](NC(=O)[C@H](Cc2ccc(OC)cc2)NC(=O)c2ccc(C)cn2)C(C)C)B(O)O)cc1
[R] COc1ccc(C[C@H](NC(=O)[C@@H](NC(=O)[C@H](Cc2ccc(OC)cc2)NC(=O)c2cnccn2)C(C)C)B(O)O)cc1
[S] COc1ccc(C[C@H](NC(=O)[C@@H](NC(=O)[C@H](Cc2ccc(OC)cc2)NC(=O)c2ccc3cnccc3c2)C(C)C)B(O)O)cc1
[Q] Would you mind ranking these molecules by ascending IC50? Give the labels in the order specified.
[A] P, Q, R, S
